# System: SK-MEL-2 melanoma
# RUN DESCRIPTION: NCI tumour cell line growth inhibition, 48 h
MEASURED ENDPOINT: GI50

Please review the following examples before continuing.
>>> result("O=C(/C=C/c1ccco1)c1ccc(Nc2nc(Nc3ccc(F)cc3)nc(Nc3ccc(F)cc3)n2)cc1")
"39 µM"
>>> result("COc1ccc(C(=O)c2cc3c(N)c(C(=O)Nc4cccc(OC)c4)sc3nc2C)cc1")
"> 100 µM"
>>> result("O=C(C=C=Nc1ccccc1)C(=O)N=C=Cc1ccccc1")
"1.49 µM"
>>> result("O=C(CCCCCCCCC(=O)N/N=C\\c1cc(Cl)ccc1O)N/N=C\\c1cc(Cl)ccc1O")
"0.441 µM"

Consider the additional compound presented here.
Q: Give reported GI50 value for COc1ccc(C2=NC(c3ccc(Cl)cc3)C(c3ccc(Cl)cc3)N2C(=O)N2CCNC(=O)C2)c(OC(C)C)c1 (stereo not given)
Result: 2.08 µM

---

# Test system: HT29 colon
# RUN DESCRIPTION: NCI tumour cell line growth inhibition, 48 h
Listing of recorded TGI by entry.

>>> result("COc1ccc2c(c1)c1c3n2CCNN=C3CCC1")
"> 100 µM"
>>> result("COC1CC(OC2C(C)OC(OC3C(C)OC(OC4C(C)OC(O[C@H]5CC[C@@]6(C)C(=CC[C@]7(O)[C@@H]6C[C@@H](O)[C@@]6(C)[C@]7(O)CC[C@@]6(O)C(C)=O)C5)CC4OC)CC3OC)CC2OC)OC(C)C1O (stereo not given in full)")
"> 12.5 µM"
>>> result("N#Cc1nc(-c2cccc(-c3nc(C#N)c(N)o3)n2)oc1N")
"> 100 µM"
>>> result("Cc1ccccc1NC(=O)Cc1csc(N=Nc2c(O)[nH]c3ccccc23)n1")
"> 100 µM"
>>> result("O=c1[nH]nc(-c2ccccc2)n1-n1cnnc1")
"> 100 µM"

Q: Give reported TGI value for CC(C)C(NC(=O)C(Cc1ccccc1)NC(=O)[C@H]1CCC[C@H]1NC(=O)C(Cc1ccc(OC(C)(C)C)cc1)NC(=O)OC(C)(C)C)C(N)=O (stereo not given in full)
Result: 53.3 µM

Q: Give reported TGI value for `C#CCOCn1cnc2ncnc(N)c21`
Result: > 100 µM

Q: Give reported TGI value for Cc1ccc(/C=C2\N=C(N3CCCC(CO)C3)NC2=O)cc1 (stereo not given)
Result: > 100 µM

Q: Give reported TGI value for `COc1cc(/C=N/NC2=NCCN2)ccc1O`
Result: > 100 µM

Q: Give reported TGI value for `O=C(O)CCc1nc(-c2ccccc2-n2cccc2)no1`
Result: > 100 µM

---

# System: SK-MEL-28 melanoma
# RUN DESCRIPTION: NCI tumour cell line growth inhibition, 48 h
Where a SMILES comes first, the peptide text is derived from it. The star is where a group is joined. Trt = c1ccc(C(c2ccccc2)(c2ccccc2)*)cc1; Cbz = O=C(OCc1ccccc1)*
MEASURED ENDPOINT: GI50

Please review the following examples before continuing.
>>> result("COc1cccc2c1cc1c3c(cc4c(c32)OCO4)C(=O)N1")
"13.1 µM"
>>> result("O=Cc1ccc(N2CCN(c3ccc(C=O)cc3)CC2)cc1")
"> 100 µM"
>>> result("Cc1c(Cl)c(C)c(Cc2c(C)c(Cl)c(C)c(Cl)c2O)c(O)c1Cl")
"3.14 µM"
>>> result("COC(=O)C(CSC(c1ccccc1)(c1ccccc1)c1ccccc1)NC(=O)C(CC(N)=O)NC(=O)OCc1ccccc1 (stereo not drawn) (Cbz-Asn-Cys(Trt)-OMe; configuration not given here)")
"3.42 µM"

Q: Give reported GI50 value for `Cn1cc(C2=C(c3cn(CCCCC(=N)N)c4ccccc34)C(=O)NC2=O)c2ccccc21`
Result: > 25 µM

Q: Give reported GI50 value for `Cc1cc2nc(-c3c(F)cccc3Cl)n(Cc3c(F)cccc3Cl)c2cc1C`
Result: 24.8 µM

---

# Tested on: OVCAR-3 ovarian
# RUN DESCRIPTION: NCI tumour cell line growth inhibition, 48 h; in the data active = GI50 below about 0.43 µM; inactive = the rest
Answer with one of the outcomes true = active, false = inactive

>>> cat("O=C(CCCCCCCCC(=O)N/N=C\\c1cc(Cl)ccc1O)N/N=C\\c1cc(Cl)ccc1O")
"true"
>>> cat("Cn1cc(C2=C(c3cn(CCCCC(=N)N)c4ccccc34)C(=O)NC2=O)c2ccccc21")
"false"

Read the next record carefully.
Q: Record lookup: outcome of this test for `Cc1ccc(-c2n[nH]c(=O)c3noc(-c4ccc(C)cc4)c23)cc1` ?
Result: false

---

# System: CAKI-1 renal
# RUN DESCRIPTION: NCI tumour cell line growth inhibition, 48 h
MEASURED ENDPOINT: GI50

Please review the following examples before continuing.
>>> result("CC(=O)[C-](C(C)=O)c1ccccc1.CC(=O)[C-](C(C)=O)c1ccccc1.CC(=O)[C-](C(C)=O)c1ccccc1.[Cl-].[Zr+4]")
"> 100 µM"
>>> result("CCCN1CCC=C(c2ccc(Nc3nc(Nc4ccccc4C(N)=O)c4cc[nH]c4n3)c(C)c2)C1")
"9.49 µM"
>>> result("Cn1cc(C2=C(c3cn(CCCCC(=N)N)c4ccccc34)C(=O)NC2=O)c2ccccc21")
"> 25 µM"

Q: Give reported GI50 value for `CN=C(N)N/N=C(\C)c1ccc2c(c1)Cc1ccccc1-2`
Result: 2.5 µM

Q: Give reported GI50 value for `NS(=O)(=O)c1ccc(NC(=O)c2cccc(NC3=C(Cl)C(=O)N(Cc4ccccc4)C3=O)c2)cc1`
Result: 12.5 µM

Q: Give reported GI50 value for `O=C(/C=C/c1cccc2ccccc12)Nc1ncc(Cc2ccccc2)s1`
Result: 0.609 µM

Q: Give reported GI50 value for `Cc1cc2nc3c4ccc(Br)cc4n(CCN(C)C)c3nc2cc1C`
Result: 1.53 µM

---

# Test system: BT-549 breast
# RUN DESCRIPTION: NCI tumour cell line growth inhibition, 48 h
Where a SMILES comes first, the peptide text is derived from it. The star is where a group is joined. Trt = c1ccc(C(c2ccccc2)(c2ccccc2)*)cc1; Cbz = O=C(OCc1ccccc1)*
MEASURED ENDPOINT: TGI

>>> result("CCOC(=O)c1c(C)n(Cc2ccccc2)c2c1cc1oc(=O)c(=O)n3cnc2c13")
"34.2 µM"
>>> result("Cn1cc(C2=C(c3cn(CCCCC(=N)N)c4ccccc34)C(=O)NC2=O)c2ccccc21")
"> 25 µM"
>>> result("CCOC(=O)C1=C(C)N(Cc2ccccc2)C2(O)C=CC(=O)C3=C(O)c4ccccc4C(=O)C312 (centres undefined)")
"20.2 µM"
>>> result("O=C(Cc1ccccc1)NN1C(=O)/C(=C\\c2ccccc2O)SC1=Nc1ccccc1")
"> 100 µM"
>>> result("COC(=O)C(CSC(c1ccccc1)(c1ccccc1)c1ccccc1)NC(=O)C(CC(N)=O)NC(=O)OCc1ccccc1 (stereo not drawn) (Cbz-Asn-Cys(Trt)-OMe; configuration not given here)")
"35.7 µM"
>>> result("O=C(/C=C/c1ccco1)c1ccc(Nc2nc(Nc3ccc(F)cc3)nc(Nc3ccc(F)cc3)n2)cc1")
"26.8 µM"
>>> result("NC(=O)c1ccc(N(C(N)=O)c2c(F)cccc2F)nc1-c1ccc(F)cc1F")
"> 100 µM"
>>> result("CN(C)CCNC(=O)c1c(O)ccc2c1c1c(n2CCc2ccccc2)C(=O)c2ccccc2C1=O")
"32.6 µM"

Consider the additional compound presented here.
Q: Give reported TGI value for `O=c1[nH]c2ccc(CC(=S)N3CCCCC3)cc2s1`
Result: > 100 µM

---

Listing of recorded TGI by entry.
# Tested on: UO-31 renal
# RUN DESCRIPTION: NCI tumour cell line growth inhibition, 48 h
Where a SMILES comes first, the peptide text is derived from it. The star is where a group is joined. Trt = c1ccc(C(c2ccccc2)(c2ccccc2)*)cc1; Cbz = O=C(OCc1ccccc1)*
// units = µM; emit number, no label

Please review the following examples before continuing.
>>> measured_number("COc1ccc2c(c1)/C(=N/OC(C)=O)c1c-2cnc2ccccc12")
46.6
>>> measured_number("CC(=O)c1c2c(cc3c1CC1(C3)Cc3cc4c(c(C(=O)O)c3C1)CCC4)CCC2 (configuration not stated)")
72.7
>>> measured_number("c1ccc(-c2ccnc3c2ccc2c(-c4ccccc4)ccnc23)cc1")
4.91

Q: Give reported TGI value for `CC(/C=N/N=C(N)N)=N\N=C(N)N`
Result: 552

Q: Give reported TGI value for `CCN(CC)Cc1cc(Nc2c3ccccc3nc3cc(Cl)ccc23)ccc1O`
Result: 2.64

Q: Give reported TGI value for `NS(=O)(=O)c1ccc(NC(=O)c2cccc(NC3=C(Cl)C(=O)N(Cc4ccccc4)C3=O)c2)cc1`
Result: 6.4

Q: Give reported TGI value for Nc1nc(N)c2c(n1)NC(c1sc(Cl)nc1Cl)CC(c1ccc3c(c1)OCO3)=N2 (configuration not stated)
Result: 24.5

Q: Give reported TGI value for `CC(=O)Nc1ccc(-c2nnc(SCC(=O)Nc3ccc(Cl)cc3)o2)cc1`
Result: 33.6

Q: Give reported TGI value for COC(=O)C(CSC(c1ccccc1)(c1ccccc1)c1ccccc1)NC(=O)C(CC(N)=O)NC(=O)OCc1ccccc1 (stereo not drawn) (Cbz-Asn-Cys(Trt)-OMe; configuration not given here)
Result: 21.2

Q: Give reported TGI value for `O=C(C=C=Nc1ccccc1)C(=O)N=C=Cc1ccccc1`
Result: 3.82

Q: Give reported TGI value for `C=C(C)[C@@H]1CC[C@]2(CO)CC[C@]3(C)[C@H](CC[C@@H]4[C@@]5(C)CC[C@H](NCO)C(C)(C)[C@@H]5CC[C@]43C)[C@@H]12`
Result: 1.35

Q: Give reported TGI value for C=C1C(=O)OC2C3OC(C)(CCC(O)C3COC(C)=O)CC(OC(=O)/C(=C/C)COC(C)=O)C12 (configuration not stated)
Result: 0.807

Q: Give reported TGI value for `Oc1ccc(Cl)cc1/C=N\NC(=S)N/N=C/c1cc(Cl)ccc1O`
Result: 15.5

Q: Give reported TGI value for `Cc1ccc(/C=C2/N=C(N/N=C\c3ccccc3)NC2=O)cc1`
Result: 45.6

Provenance of the data: PubChem BioAssay (NCI)
